test system: full length human vWF; test: 3-point dot blot screen, full length human vWF; format: binding; details: 20 nM full length human vWF, ratio of fraction of aptamer bound with target protein to fraction bound without protein
Quick list: Screen- Human/No Protein per entry.
Lab note: jot down the number only; don't add units.

// below: answered molecules
Molecule	Screen- Human/No Protein
AMX237.F10: DNA SELEX 2 aptamer clone (nucleic acid, DNA, backbone not given here, DNA SELEX 2 aptamer clone) DNA: CTACCTACGATCTGACTAGCGTGCAGTGCCCATTCCAGGCCGTGCGGTATCCTCCGTCACGCTTACTCTCATGTAGTTCC	2.90
AMX237.C9: DNA SELEX 2 aptamer clone (nucleic acid, DNA, backbone not given here, DNA SELEX 2 aptamer clone) DNA: CTACCTACGATCTGACTAGCTTGGTAGTGACTTTGTGGAGCTGCGGTTTGGTCGACGTCAGCTTACTCTCATGTAGTTCC	2.05
AMX237.C11: DNA SELEX 2 aptamer clone (nucleic acid, DNA, backbone not given here, DNA SELEX 2 aptamer clone) DNA: CTACCTACGATCTGACTAGCGTGCAGTGCCTATTCTAGGCCGTGCGGTGCCTCCGTCATGCTTACTCTCATGTAGTTCC	2.04

Here's the next entry for you.
Task: Which Screen- Human/No Protein value belongs to AMX237.G7: DNA SELEX 2 aptamer clone (nucleic acid, DNA, backbone not given here, DNA SELEX 2 aptamer clone) DNA: CTACCTACGATCTGACTAGCTTGGTAGCGACTTTGTGGAGCTGCGGTTTGGTCGACGTCAGCTTACTCTCATGTAGTTCC ?
Output: 2.68
